Reference source for all entries: PubChem BioAssay (NCI)

# Test system: 786-0 renal
# method summary: NCI-60 one-dose screen, 48 h (100 = growth as untreated, 0 = no growth, -100 = all killed)
# cond: 10 µM unless noted
The panel holds about 83,000 compounds, 20% with a hit somewhere; the sample as a whole holds those more often.
Sorting guide: entries reporting growth beneath 40% go in the true pile, the rest go in the false pile.

Prompt: Does the reported growth of the following molecule sit strictly below 40%? `O=C(Nn1c2c(sc1=NC1CC1)C(=O)c1ccccc1C2=O)c1cc2ccc1CCc1ccc(cc1)CC2`
Completion: false

Prompt: is_below(growth, 40%) for `CCCCCCCC[C@@H]1N[C@@H](C(=O)OC)Cc2c1[nH]c1ccccc21` ?
Completion: false

Prompt: State whether 40% exceeds growth recorded for `c1ccc(-c2oc(-c3ccccc3)c(CN3CCCCC3)c2CN2CCCCC2)cc1` .
Completion: true

Prompt: Given the entry CC(=O)N1N=C(c2ccc(C(F)(F)F)c(F)c2)CC1c1[nH]c(C)c(C(=O)NCC(F)(F)F)c1C (stereo not drawn) , would its reported growth be below 40%?
Completion: true

Prompt: Could you please tell me whether growth recorded for `C=C(C)[C@@H]1CC[C@]2(C(=O)N3CCOCC3)CC[C@]3(C)[C@H](CC[C@@H]4[C@@]5(C)C/C(=C/c6ccncc6)C(=O)C(C)(C)[C@@H]5CC[C@]43C)[C@@H]12` is less than 40%?
Completion: false

Prompt: # check: growth < 40% for `NC(=O)c1cc(I)ccc1NC(=O)/C=C/c1ccccc1`
Completion: true

Prompt: Consider `CCc1ccccc1-n1c(-c2ccc(OC)cc2)cc(-c2ccc(OC)cc2)c(C#N)c1=O` . Does its growth lie strictly below 40%?
Completion: true

Prompt: Check if growth falls below 40% for `Cn1ccnc1C(=O)/C=C/c1ccc(CC(=O)Nc2cc(C(F)(F)F)cc(C(F)(F)F)c2)cc1` .
Completion: false

* * *

# Tested on: SF-295 CNS
# method summary: NCI-60 one-dose screen, 48 h
# cond: 10 µM unless noted
Compounds without any hit were thinned out: in the full panel of roughly 83,000, 20% have a hit. The source made the active and inactive calls. The calls were made as follows: active = growth percent below 10; inactive = the rest.
Reply using exactly one outcome from True = active, False = inactive

Prompt: Per the assay record, what outcome was assigned to `CC/C(=C(/c1ccc(Cl)cc1)c1ccc(OCCN2CCCCC2)cc1)c1ccc(OC)cc1` ?
Completion: False

Prompt: # lookup: test call for `Oc1c(Br)cc(Br)c2ccc(Cn3cc(-c4ccc(C(F)(F)F)cc4)nn3)nc12`
Completion: False

Prompt: Assay outcome for `CS(=O)(=O)c1ccc(-c2cnn3ccc(-c4cccc(S(=O)(=O)C5CC5)c4)nc23)cc1` : what was it?
Completion: False

Prompt: Fill in: this test's call for `CCOC(=O)C#Cc1c(C(=O)OCC)nnn1Cc1ccc([N+](=O)[O-])cc1` is ___
Completion: False

Prompt: Please state the recorded outcome for this compound: `CS(=O)(=O)Nc1cc(-c2ccc3ncnc(Nc4ccc5c(cnn5Cc5ccc(F)cc5)c4)c3c2)cnc1Cl`
Completion: False

Prompt: Name the outcome recorded for `CCC(=C(c1ccc(OCCN2CCCCC2)cc1)c1ccc(OCCN2CCCCC2)cc1)c1ccc(Cl)cc1` in the assay.
Completion: True

Prompt: Any idea what this test logged for `C=CC[Se]C(=O)Cc1c(C)n(C(=O)c2ccc(Cl)cc2)c2ccc(OC)cc12` ?
Completion: True

Prompt: Please state the recorded outcome for this compound: `COc1ccccc1N1CCCCC1`
Completion: False

Prompt: Which outcome was assigned to `Cn1ccc(=O)c(C(=O)Nc2nsc3ccc([N+](=O)[O-])cc23)c1` in this test?
Completion: False

Prompt: State the result this test recorded for `CN(c1cc2ncc(=O)[nH]c2cc1NC(N)=NCc1ccc(Cl)cc1)C1CCCCC1` .
Completion: False

Prompt: State the result this test recorded for `CCN(CC)c1ccc(\C=N/N=C(N)/C(N)=N\N=C/c2ccc(N(CC)CC)cc2)cc1` .
Completion: False

Prompt: Recorded test call requested for `CS(=O)(=O)Nc1cncc(-c2ccc3ncnc(Nc4cncc(Cl)c4)c3c2)c1`
Completion: False

Prompt: What was the test verdict on CCCCCN1C(=O)/C(=c2\sc3n(c2=O)C2C(NN=3)N(CC)C(=O)N2CC)c2ccccc21 (stereo unspecified) ?
Completion: True

Prompt: Outcome logged for `Cc1ccc2c(n1)C(=O)C(Br)=C(CC(C)C)C2=O` in this assay:
Completion: False

Prompt: Hi team, can someone confirm the assay call for `CCN1CCN(C(=O)[C@]23CCC(C)(C)C[C@@H]2C2=CC[C@@H]4[C@@]5(C)CCC(=O)C(C)(C)[C@@H]5CC[C@@]4(C)[C@]2(C)CC3)CC1` ?
Completion: False

Prompt: Hi team, can someone confirm the assay call for Cc1cc(C)c2c(c1)N(C)c1ncnc(-n3cnc4cc(C)ccc43)c1CC2C (stereo unspecified) ?
Completion: True

Prompt: Hello, I am checking results. What call was entered for `COc1ccc(-c2ccc(-c3ccc(C(=N)N)cc3)s2)cc1Cl` ?
Completion: True

Prompt: Recorded test call requested for `CCc1ccccc1-n1c(-c2ccc(OC)cc2)cc(-c2ccc(OC)cc2)c(C#N)c1=O`
Completion: False

Prompt: Look up the recorded call for `CCCCNCCCCCNc1cc(OC)cc2cccnc12` in this test.
Completion: False

Prompt: Can you look up the reported call for `N#Cc1nc(-c2ccc(F)cc2)oc1S(=O)(=O)N1CCCCC1` for me?
Completion: False

Prompt: Query: recorded result category for `CCCCCCCCCc1ccc(OCCOCCOCCOCCOCCOCCOCCOCCOCCO)cc1` in this test
Completion: True
